Attribution: the supplement of paper PMC7411054

test system: WPMY1-GM130-SQSTM1; assay: lowest phenotypically active concentration; higher = less potent; details: treatment time: 24 h
Counter-ions that a name gives are not always drawn.
A collection of compounds and their measured lowest phenotypically active concentration
measured.property: lowest phenotypically active concentration (µM)

{"compound": "CC(C)OC(=O)c1cc2c(OCC(O)CNC(C)(C)C)cccc2[nH]1 (stereo not drawn)", "test.system": "WPMY1-GM130-SQSTM1", "comparison.operator": "=", "experimental.result": 9}
{"compound": "COc1cc(Br)c(Nc2nc(-c3c(C)nc4ncccn34)cs2)c(Br)c1", "test.system": "WPMY1-GM130-SQSTM1", "comparison.operator": "=", "experimental.result": 1}
{"compound": "Nc1nc(Cl)nc2c1ncn2[C@@H]1O[C@H](CO)[C@@H](O)[C@@H]1F", "test.system": "WPMY1-GM130-SQSTM1", "comparison.operator": "=", "experimental.result": 3}
{"compound": "Nc1ccc(-c2cccc3c(=O)cc(N4CCOCC4)oc23)cc1", "test.system": "WPMY1-GM130-SQSTM1", "comparison.operator": "=", "experimental.result": 3}
{"compound": "COc1cc2c(N3CCN(C(=O)Nc4ccc(OC(C)C)cc4)CC3)ncnc2cc1OCCCN1CCCCC1", "test.system": "WPMY1-GM130-SQSTM1", "comparison.operator": "=", "experimental.result": 9}
{"compound": "CN(C)C(=O)C(CCN1CCC(O)(c2ccc(Cl)cc2)CC1)(c1ccccc1)c1ccccc1 [loperamide]", "test.system": "WPMY1-GM130-SQSTM1", "comparison.operator": "=", "experimental.result": 9}
{"compound": "S=C(S)N1CCCC1 [Pyrrolidinedithiocarbamate ammonium]", "test.system": "WPMY1-GM130-SQSTM1", "comparison.operator": "=", "experimental.result": 9}
{"compound": "Cn1cc(-c2[nH]c3cc(NC(=O)[C@H](N)C4CCCCC4)cc4c3c2C=NNC4=O)cn1", "test.system": "WPMY1-GM130-SQSTM1", "comparison.operator": "≤", "experimental.result": 0.3}
{"compound": "CO[C@H]1C=CC=C(C)C(=O)NC2=CC(=O)C(NCCN(C)C)=C(C[C@@H](C)C[C@H](OC)[C@H](O)[C@@H](C)C=C(C)[C@@H]1OC(N)=O)C2=O [17-DMAG hydrochloride]", "test.system": "WPMY1-GM130-SQSTM1", "comparison.operator": "≤", "experimental.result": 0.3}
{"compound": "C[C@H]1[C@H]2CC[C@H]3[C@@H]4CC=C5C[C@@H](N(C)C)CC[C@]5(C)[C@H]4CC[C@]23CN1C", "test.system": "WPMY1-GM130-SQSTM1", "comparison.operator": "=", "experimental.result": 1}
{"compound": "O=c1c(O)c(-c2ccc(O)c(O)c2)oc2cc(O)cc(O)c12", "test.system": "WPMY1-GM130-SQSTM1", "comparison.operator": "=", "experimental.result": 9}
{"compound": "O=C1CCc2ccc(OCCCCN3CCN(c4cccc(Cl)c4Cl)CC3)cc2N1", "test.system": "WPMY1-GM130-SQSTM1", "comparison.operator": "≤", "experimental.result": 0.3}
{"compound": "CNCCC(Oc1ccc(C(F)(F)F)cc1)c1ccccc1 (stereo not drawn)", "test.system": "WPMY1-GM130-SQSTM1", "comparison.operator": "=", "experimental.result": 9}
{"compound": "Nc1ccc(N=Nc2ccccc2)c(N)n1", "test.system": "WPMY1-GM130-SQSTM1", "comparison.operator": "=", "experimental.result": 3}
{"compound": "CC(=O)S[C@@H]1CC2=CC(=O)CC[C@]2(C)[C@H]2CC[C@@]3(C)[C@@H](CC[C@@]34CCC(=O)O4)[C@H]12", "test.system": "WPMY1-GM130-SQSTM1", "comparison.operator": "=", "experimental.result": 9}
{"compound": "O=C1N=C(NCc2cccs2)S/C1=C\\c1ccc2ncccc2c1", "test.system": "WPMY1-GM130-SQSTM1", "comparison.operator": "=", "experimental.result": 1}
{"compound": "COc1cc(OC2CCN(C)CC2)ccc1Nc1ncc2c(n1)n(C1CCCC1)c(=O)n2C", "test.system": "WPMY1-GM130-SQSTM1", "comparison.operator": "=", "experimental.result": 9}
{"compound": "C/C=C1\\NC(=O)[C@H]2CSSCCC=C[C@H](CC(=O)N[C@H](C(C)C)C(=O)N2)OC(=O)[C@H](C(C)C)NC1=O", "test.system": "WPMY1-GM130-SQSTM1", "comparison.operator": "≤", "experimental.result": 0.3}
{"compound": "O=C(/C=C/c1ccc2ccccc2n1)c1ccncc1", "test.system": "WPMY1-GM130-SQSTM1", "comparison.operator": "=", "experimental.result": 9}
{"compound": "C[C@]1(O)C[C@@H](c2nc(-c3ccc4ccc(-c5ccccc5)nc4c3)c3c(N)nccn32)C1", "test.system": "WPMY1-GM130-SQSTM1", "comparison.operator": "=", "experimental.result": 9}
{"compound": "NC(=O)c1sc2c([N+](=O)[O-])cc(C(F)(F)F)cc2[n+]1[O-]", "test.system": "WPMY1-GM130-SQSTM1", "comparison.operator": "=", "experimental.result": 9}
{"compound": "C[C@H](NC(=O)[C@@H](O)c1cc(F)cc(F)c1)C(=O)N[C@@H]1C(=O)N(C)c2ccccc2-c2ccccc21", "test.system": "WPMY1-GM130-SQSTM1", "comparison.operator": "=", "experimental.result": 3}
{"compound": "C=CC(=O)N1CCC[C@@H](n2nc(-c3cccc(C(=O)Nc4ccc(C(C)C)c(C)c4)c3)c3c(N)ncnc32)C1", "test.system": "WPMY1-GM130-SQSTM1", "comparison.operator": "=", "experimental.result": 3}
{"compound": "COc1ccc2c3c(c(=O)n(C)c2c1OC)C=CC(C)(C)O3", "test.system": "WPMY1-GM130-SQSTM1", "comparison.operator": "=", "experimental.result": 9}
{"compound": "Nc1ncnc2c1nc(Cl)n2C1O[C@H](CO)[C@@H](O)[C@H]1O (stereo partly drawn)", "test.system": "WPMY1-GM130-SQSTM1", "comparison.operator": "=", "experimental.result": 3}
{"compound": "CN1CCc2cccc3c2[C@H]1Cc1ccc(O)c(O)c1-3 [r(-)-apomorphine]", "test.system": "WPMY1-GM130-SQSTM1", "comparison.operator": "≤", "experimental.result": 0.3}
{"compound": "c1ccc2c(c1)Cc1c(Nc3ccc4c(c3)OCCO4)n[nH]c1-2", "test.system": "WPMY1-GM130-SQSTM1", "comparison.operator": "=", "experimental.result": 3}
{"compound": "CC(C)n1c(/C=C/[C@@H](O)C[C@@H](O)CC(=O)O)c(-c2ccc(F)cc2)c2ccccc21", "test.system": "WPMY1-GM130-SQSTM1", "comparison.operator": "=", "experimental.result": 1}
{"compound": "CCC1(O)CC2CN(CCc3c([nH]c4ccccc34)C(C(=O)OC)(c3cc4c(cc3OC)N(C)C3C(O)(C(=O)OC)C(OC(C)=O)C5(CC)C=CCN6CCC43C65)C2)C1 (stereo not drawn) [Vinblastine sulfate]", "test.system": "WPMY1-GM130-SQSTM1", "comparison.operator": "≤", "experimental.result": 0.3}
{"compound": "COc1c(Nc2cc(C)[nH]n2)nc(Sc2ccc(S(=O)(=O)Cc3cccc([N+](=O)[O-])c3F)cc2F)nc1N1CCOCC1", "test.system": "WPMY1-GM130-SQSTM1", "comparison.operator": "=", "experimental.result": 3}
{"compound": "Cc1ccc([N+](=O)[O-])cc1S(=O)(=O)N(C)/N=C/c1cnc2ccc(Br)cn12", "test.system": "WPMY1-GM130-SQSTM1", "comparison.operator": "≤", "experimental.result": 0.3}
{"compound": "CN1CCN(C(=O)CN[C@H]2C[C@@H]2c2ccc(OCc3ccccc3)cc2)CC1 [RN 1 dihydrochloride]", "test.system": "WPMY1-GM130-SQSTM1", "comparison.operator": "=", "experimental.result": 9}
{"compound": "CN(C)CCCN1c2ccccc2CCc2ccc(Cl)cc21", "test.system": "WPMY1-GM130-SQSTM1", "comparison.operator": "=", "experimental.result": 9}
